Collected IC50 values appear next to each entry.
biological target: viral kinase pUL-97 (Human cytomegalovirus, UniProt P16788); construct: The pUL-97 gene was cloned into a baculovirus vector; GST (glutathione S-transferase) (N); made in house; host or cells: Sf9 insect cells, baculovirus; test: UL97 kinase assay on Immobilon plate; format: biochemical; details: inhibition of UL 97 kinase activity; class by IC50 / % inhibition at 10 or 100 μM; read-out: Activity Class [A, B, C]
Sequence (P16788 whole entry): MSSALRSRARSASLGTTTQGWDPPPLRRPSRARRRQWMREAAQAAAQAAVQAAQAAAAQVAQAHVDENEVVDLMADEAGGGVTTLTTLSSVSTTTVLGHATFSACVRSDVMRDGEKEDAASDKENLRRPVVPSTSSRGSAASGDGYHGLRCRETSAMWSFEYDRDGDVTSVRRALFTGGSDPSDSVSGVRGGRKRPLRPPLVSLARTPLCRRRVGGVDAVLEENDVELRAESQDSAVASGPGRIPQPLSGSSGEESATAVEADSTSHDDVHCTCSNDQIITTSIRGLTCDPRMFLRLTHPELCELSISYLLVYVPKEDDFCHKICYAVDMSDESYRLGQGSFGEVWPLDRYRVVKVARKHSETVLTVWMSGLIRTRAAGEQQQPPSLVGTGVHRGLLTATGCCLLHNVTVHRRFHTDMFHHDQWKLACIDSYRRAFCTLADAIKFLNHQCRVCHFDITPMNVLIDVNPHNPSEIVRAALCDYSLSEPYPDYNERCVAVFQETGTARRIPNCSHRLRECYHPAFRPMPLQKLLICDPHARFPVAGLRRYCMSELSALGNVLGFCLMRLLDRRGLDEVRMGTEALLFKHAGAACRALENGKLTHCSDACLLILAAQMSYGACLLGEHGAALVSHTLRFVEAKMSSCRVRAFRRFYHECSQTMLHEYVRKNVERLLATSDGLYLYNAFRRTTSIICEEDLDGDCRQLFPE

INSERT INTO measurements (smiles_data, recorded_result) VALUES
  ('OCc1ccc(-c2cncc(N3CCN(c4cccc(Cl)c4)CC3)n2)cc1', '1 to 10 µM'),
  ('OCc1ccc(-c2cncc(N3CCN(c4cccc5[nH]ccc45)CC3)n2)cc1', '10 to 100 µM'),
  ('CSc1ccc(-c2cncc(N3CCN(c4ccccc4)CC3)n2)cc1', '1 to 10 µM'),
  ('COc1ccc(N2CCN(c3cncc(-c4ccc(C(N)=O)cc4)n3)CC2)cc1OC', '< 1 µM'),
  ('Cc1cc(C)cc(-c2cncc(N3CCN(c4ccccc4)CC3)n2)c1', '10 to 100 µM'),
  ('CSc1ccc(-c2cncc(N3CCN(c4ccc(F)cc4)CC3)n2)cc1', '1 to 10 µM'),
  ('Cc1ccc(-c2cncc(N3CCN(c4ccc(F)cc4F)CC3)n2)cc1', '10 to 100 µM'),
  ('NC(=O)c1cccc(-c2cncc(N3CCN(c4ccncc4)CC3)n2)c1', '1 to 10 µM');

Proceed to the following item.
Bench note: what IC50 did `OCc1ccc(-c2cncc(N3CCN(c4ccccc4F)CC3)n2)cc1` show?
1 to 10 µM
